Test system: IGROV1 ovarian
assay.info: NCI-60 one-dose screen, 48 h (100 = growth as untreated, 0 = no growth, -100 = all killed)
test.context: 10 µM unless noted
Compounds without any hit were thinned out: in the full panel of roughly 83,000, 20% have a hit.
Rule: Fulfilled for growth not less than 50%, Not fulfilled for anything less.

compound: Cn1cc(-c2csc(-c3c[nH]c4ccccc34)n2)c2cnccc21
group: Not fulfilled
//
compound: CSc1nc(N)c(NS(=O)(=O)c2ccc(C(C)=O)cc2)c(=O)[nH]1
group: Fulfilled
//
compound: Clc1ccc(/C=N\N=C\c2ccc(Cl)c(Cl)c2)cc1Cl
group: Fulfilled
//
compound: Nc1ncnc2c1C(c1ccc(Br)cc1)c1sc3c(F)cccc3c1O2 (centres undefined)
group: Fulfilled
//
compound: O=C1/C=C/[C@@H](O)[C@@H]2C[C@@H](O)C[C@H]2/C=C/CCC[C@H](CCc2ccccc2)O1
group: Not fulfilled
//
compound: COc1ccccc1NC(=O)N=Nc1c(O)[nH]c2ccccc12
group: Fulfilled
//
compound: CCN(CC)CC(O)COc1c(Br)c(Br)c(Br)c2c1OC(C)(C)C2 (centres undefined)
group: Fulfilled
//
compound: O=C(/C=C/c1cccc(Cl)c1)c1ccc(Nc2nc(Nc3ccc(F)cc3)nc(Nc3ccc(Cl)cc3)n2)cc1
group: Fulfilled
//
compound: COc1ccc(Nc2ncc(Br)c(NCCCNC(=O)c3cccs3)n2)cc1
group: Not fulfilled
//
compound: CC1=NC2=Nn3c(c4cnn(-c5ccccc5)c4n/c3=N\N)NN2C(c2ccccc2)=C1
group: Fulfilled
//
compound: COC1=CC(c2ccc[nH]2)=N/C1=C\c1[nH]c(C)c(CC(=O)OCc2ccccc2)c1CCC(=O)OCc1ccccc1
group: Not fulfilled
//
compound: O=S(=O)(c1ccccc1)n1cc2c(c1)-c1nc(Nc3ncccn3)sc1CC2
group: Fulfilled
//
compound: CCCCCCCCCCCCCCCCCCOc1ccccc1CC(=O)OCC[N+](C)(C)C
group: Not fulfilled
//
compound: COc1ccc2c(c1)N(CCO)C1=C(C(=O)OC1)C2c1cccc(F)c1 (centres undefined)
group: Not fulfilled
//
compound: O=S(=O)(NCCCNc1nccc(-c2c(-c3ccc(F)c(O)c3)nc3occn23)n1)c1ccc(Cl)cc1
group: Fulfilled
//
compound: C=C1C(=O)O[C@H]2[C@H]1CC/C(COC(=O)c1cc3ccccc3s1)=C\CC[C@@]1(C)O[C@@H]21
group: Not fulfilled
//
compound: COc1ccc(-c2cc(-c3cccnc3)nc3sc4c(=O)[nH]c(-c5ccc(Cl)cc5)nc4c23)cc1OC
group: Fulfilled
//
compound: COC(=O)[C@]1(C)CCC[C@]2(C)[C@H]3C[C@H]4C(C(C)C)=C[C@]3(CC[C@H]21)[C@@H]1C(=O)CC[C@H](OCCC#N)[C@@H]14
group: Fulfilled
//
compound: COc1ccc(/C=C(\C#N)n2nnc3cc(F)c(F)cc32)cc1
group: Not fulfilled
//
compound: COC(=O)/C=C1/SC(=Nc2cccc(OC)c2)N(CCc2c[nH]c3ccc(O)cc23)C1=O
group: Fulfilled
//
compound: CN(C)Cc1ccc(O)c(C(=O)O)c1
group: Fulfilled
//
compound: CCCCCOC(=O)c1c(C)[nH]c(/C=C2\N=C(c3ccc[nH]3)C=C2OC)c1C
group: Not fulfilled
//
compound: C#CCOC(=O)/C=C/c1cn(-c2ccccc2)nc1-c1ccc(OC)cc1
group: Fulfilled
//
compound: CC1=C2[C@@H](CC1)[C@]1(C)O[C@@](C(C)C)(C[C@H]1OC(=O)[C@H](C)O)[C@H]2OC(=O)/C=C/c1ccccc1
group: Fulfilled
//
compound: O=S(=O)(Nc1cc(F)cc(Cl)c1)c1ccc(-c2cnc(C3CC3)o2)cc1
group: Not fulfilled
//
compound: O=C1/C(=C/c2cccc(F)c2)CN(C(=O)C(Cl)Cl)C/C1=C\c1cccc(F)c1
group: Not fulfilled
//
compound: Cc1ccc(C)n1-c1ccccc1-n1c(C)ccc1C
group: Fulfilled
//
compound: CCc1ncnc2c1ccn2C(C)c1ccc(OC)c(F)c1 (centres undefined)
group: Fulfilled
//
compound: N#Cc1ccc(O)c(C2=NCC(c3cccc(Oc4ccccc4)c3)O2)c1 (centres undefined)
group: Not fulfilled
//
compound: O=C(NCCCl)Nc1ncccc1OCc1ccccc1
group: Fulfilled
//
compound: CCN(CC)S(=O)(=O)c1ccc(S(=O)(=O)N2CCC[C@@H](C(=O)N3CCN(c4nc(C(C)C)no4)CC3)C2)cc1
group: Fulfilled
//
compound: COc1ccc2[nH]c(C(=O)N3CCN(C(=O)OCc4ccc5c(Cl)cc(Cl)c(O)c5n4)CC3)cc2c1
group: Not fulfilled
//
compound: COc1cc2c(cc1OCCCN1CCN(CCCOc3cc4c(cc3OC)C(=O)N3CC(F)(F)C[C@H]3C=N4)CC1)N=C[C@@H]1CC(F)(F)CN1C2=O
group: Fulfilled
//
compound: COc1cc(C2c3cc(OC(C)=O)c(OC)cc3CC3C(=O)OCC32)ccc1OC(C)=O (centres undefined)
group: Fulfilled
//
compound: O=C(N/N=C/c1ccc(Cl)cc1)c1[nH]c2ccc(Cl)cc2c1-c1ccccc1
group: Not fulfilled
//
compound: CCOC(=O)C(=O)C(C(=O)OCC)c1ccccc1 (centres undefined)
group: Fulfilled
//
compound: CCOC(=O)c1cc(C)n(-c2ccc(C(=O)O)cc2)c1C
group: Fulfilled
//
compound: COCCn1cc(-c2nc(-c3cc4cccnc4[nH]3)cs2)c2cc(OC)ccc21
group: Not fulfilled
//
compound: COc1c(B(O)O)cccc1-c1cc(C)c2c(ccc3[nH]ncc32)n1
group: Fulfilled

Entry source: PubChem BioAssay (NCI)
